- experimentalProtocol: clinical
- condition: human, in vivo, po
parameter: MTD (mg/kg)

| compound | measurementUnits | readoutValue |
| --- | --- | --- |
| NC(=O)N=NC(N)=O [ADA, 1,1'-azobisformamide] | mg/kg | 140 |

====

- experimentalProtocol: in vitro
- condition: human, supt-1 cells

| compound | measurementUnits | cytotoxicity at 1 h |
| --- | --- | --- |
| CN(C)C(=O)N=NC(=O)N(C)C [1.1'-azobisdimethylformamide] | % | 24 |

====

- experimentalProtocol: in vitro
- condition: human, supt-1 cells

| compound | cytotoxicity at 5 h / % |
| --- | --- |
| CN(C)C(=O)N=NC(=O)N(C)C [1.1'-azobisdimethylformamide] | 28 |

====

- experimentalProtocol: in vitro
- condition: human, molt-3 cells, % of dead cells
parameter: cytotoxicity at 1 min (%)

| molecule | readoutValue |
| --- | --- |
| CN(C)C(=O)N=NC(=O)N(C)C [1.1'-azobisdimethylformamide] | 12.7 |
